The measurements presented in this section are drawn from patent US20260250371A1.

Items are presented alongside their recorded pKd.
Molecular target: T1, recombinant human FGF23 (R179Q) (human, UniProt Q9GZV9 25-251)
T1 construct: also called rhFGF23(R179Q); hFGF23(R179Q)
T1 sequence (looked up): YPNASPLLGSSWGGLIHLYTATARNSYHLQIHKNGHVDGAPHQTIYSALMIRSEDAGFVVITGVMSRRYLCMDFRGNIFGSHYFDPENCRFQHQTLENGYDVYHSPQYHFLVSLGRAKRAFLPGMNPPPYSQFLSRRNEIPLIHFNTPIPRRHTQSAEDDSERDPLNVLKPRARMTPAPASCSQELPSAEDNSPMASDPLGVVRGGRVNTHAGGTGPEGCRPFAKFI
Assay: SPR, antibody captured on hIgG chip, rhFGF23(R179Q) analyte
// returns pKd (minus log10 of molar concentration), number only

UGX203 (antibody, human IgG1, kappa, V domains shown, also called HC:S59E, LC:S52D; S59E/S52D) VH: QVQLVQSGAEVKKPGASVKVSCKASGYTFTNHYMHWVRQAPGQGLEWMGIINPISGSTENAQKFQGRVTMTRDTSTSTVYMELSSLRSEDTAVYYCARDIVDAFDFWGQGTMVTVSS VL: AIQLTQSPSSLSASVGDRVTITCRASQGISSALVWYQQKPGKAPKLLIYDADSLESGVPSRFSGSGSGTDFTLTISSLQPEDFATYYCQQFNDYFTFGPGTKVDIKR : 10.94

# context switch: different binder, same pKd
Entry UGX145 (antibody, human IgG1, kappa, V domains shown, also called UGX042; LC:Y94E) VH: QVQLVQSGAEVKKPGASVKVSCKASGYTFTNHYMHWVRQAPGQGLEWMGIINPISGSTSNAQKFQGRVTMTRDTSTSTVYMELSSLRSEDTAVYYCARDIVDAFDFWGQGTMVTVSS VL: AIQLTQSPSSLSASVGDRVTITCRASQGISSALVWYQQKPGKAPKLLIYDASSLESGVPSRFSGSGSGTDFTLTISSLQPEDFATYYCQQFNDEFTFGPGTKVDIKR : reported pKd = ? 10.88
